# assayed_system: Cytochrome P450 3A4 (Homo sapiens, UniProt P08684)
# Sequence (P08684 whole entry): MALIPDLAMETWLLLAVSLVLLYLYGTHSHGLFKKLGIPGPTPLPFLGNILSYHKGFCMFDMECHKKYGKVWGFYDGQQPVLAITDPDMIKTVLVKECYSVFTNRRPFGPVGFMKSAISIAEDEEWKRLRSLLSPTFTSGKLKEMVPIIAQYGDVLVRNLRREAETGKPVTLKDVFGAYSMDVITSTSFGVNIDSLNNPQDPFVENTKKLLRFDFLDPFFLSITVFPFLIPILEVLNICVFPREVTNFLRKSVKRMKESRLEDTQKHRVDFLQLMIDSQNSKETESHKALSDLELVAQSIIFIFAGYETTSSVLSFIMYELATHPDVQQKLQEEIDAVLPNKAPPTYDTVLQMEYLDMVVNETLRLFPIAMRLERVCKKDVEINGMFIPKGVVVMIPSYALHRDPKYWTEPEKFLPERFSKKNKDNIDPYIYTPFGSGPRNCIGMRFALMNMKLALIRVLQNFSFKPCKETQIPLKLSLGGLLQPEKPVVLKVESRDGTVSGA
# protocol_description: Inhibition of CYP3A4 using in human liver microsomes using testosterone as substrate after 5 to 15 mins
# Type: ADME
reported_endpoint: IC50 (µM)
Numbers only; they are read as µM.

I have this compound here, CC(C)n1nccc1-c1ncccc1COc1cccc(O)c1C=O [VOXELOTOR] , and I need its recorded IC50.
12.5

----------
# protocol_description: Half life in monkey plasma
# Assay type: ADME, cell-free, Macaca mulatta
# experimental_context: rhesus monkey
reported_endpoint: half-life (h)
Numbers only; they are read as h.

I have this compound here, `CC(C)n1nccc1-c1ncccc1COc1cccc(O)c1C=O` , and I need its recorded half-life.
20
